Measured normalized growth accompanies every entry in the list below.
# Experiment Notes: chemical genetic growth profiling, strain panel (AID 1159580);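 further: tested at 20 µM; growth read once vehicle control cultures reached saturation at 30 °C; 1 = growth at the plate median or of vehicle wells; lower values mean less growth of the strain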
# Conditions: S. cerevisiae deletion strains, growth OD, locus YMR263W, strain SAP30, active compounds read low
The whole screen tested about 5,500 compounds, of which about 2,000 (36%) were called active. About 18% were inconclusive and are not listed. The list shows a part of the results.
Value Type: normalized growth

| Compound | Value Type | Observed Result |
| --- | --- | --- |
| CCN(CC)C(=O)c1[nH]c(C)c(C)c1C | normalized growth | 1.01 |
| CCN1C[C@]2(C)CC[C@H](OC)[C@]34C2[C@H](O)[C@]2(OCO[C@@]25C[C@H](OC)[C@H]2C[C@]3(O)C5[C@H]2O)C14 | normalized growth | 0.998 |
| CCN(c1nc(N)c(C(=O)N=C(N)N)nc1Cl)C(C)C | normalized growth | 1 |
| O=S(=O)(Oc1cc(Cl)cc(Cl)c1)c1cccc(S(=O)(=O)Oc2cc(Cl)cc(Cl)c2)c1 | normalized growth | 0.992 |
| C[C@]12CCC3c4ccc(OS(=O)(=O)O)cc4CCC3C1CC[C@H]2O (stereo not given in full) | normalized growth | 1 |
| OC1(C(F)(F)F)CC(c2ccccc2)=NN1 (stereo not given) | normalized growth | 0.976 |
| CC(C)(C)NCC(O)c1cc(Cl)c(N)c(Cl)c1 (stereo not given) | normalized growth | 1.01 |
| O=C1NN=C2C3CC4CC12CC1(C3)C(=O)NN=C41 | normalized growth | 0.974 |
| NC[C@@H]1O[C@H](C23CC4CC(CC(C4)C2)C3)Cc2c1ccc(O)c2O | normalized growth | 1 |
| c1ccc(-c2ccccn2)nc1 | normalized growth | 1 |
| O=C1c2ccccc2C(=O)N1CNc1ccc(N2CCOCC2)cc1 | normalized growth | 0.993 |
| O=[N+]([O-])c1ccc(Oc2cccc3cccnc23)cc1 | normalized growth | 1 |
| COC(=O)C1OC(=O)C2OC23C1(C)CCC1C2(C)C(OC(C)=O)CC(OC(C)=O)C(C)(C)C2CC(=O)C13C (stereo not given) | normalized growth | 0.994 |
| C[C@H](O)C(=O)C1=Nc2c(nc(N)[nH]c2=O)NC1 | normalized growth | 0.983 |
| Cc1cn([C@H]2C=C[C@@H](CO)O2)c(=O)[nH]c1=O | normalized growth | 0.998 |
| CNCC(O)c1ccc(O)cc1 (stereo not given) | normalized growth | 1 |
| CSc1nc(N)c2ncn([C@@H]3O[C@H](COP(=O)(O)OP(=O)(O)OP(=O)(O)O)[C@H](O)C3O)c2n1 (stereo not given in full) | normalized growth | 1 |
| NC(=O)CN1CCCC1=O | normalized growth | 0.993 |
| CC(=O)Oc1ccc2c(c1C(C)C)CCC1C(C)(C)CCC[C@]21C (stereo not given in full) | normalized growth | 1.02 |
| CCC1OC(=O)[C@H](C)C(=O)[C@H](C)[C@@H](OC2O[C@H](C)C[C@H](N(C)C)[C@H]2O)[C@](C)(OC)C2(CCCn3cnc(-c4cccnc4)c3)C[C@@H](C)C(=O)[C@H](C)[C@H]3N(C2)C(=O)O[C@]13C (stereo not given in full) | normalized growth | 1 |
| Cn1[nH]c(=O)cc1C(=O)NN | normalized growth | 0.991 |
| CCOC(=O)NC1=C(C2CC2)C(=O)C(NC(=O)OCC)=C(C2CC2)C1=O | normalized growth | 1.01 |
| CC1=NN=C(c2ccc(N)cc2)c2cc3c(cc2C1)OCO3 | normalized growth | 0.996 |
| CCCC1O[C@@H]2C[C@H]3[C@@H]4CCC5=CC(=O)C=C[C@]5(C)[C@H]4[C@@H](O)C[C@]3(C)[C@]2(C(=O)CO)O1 (stereo not given in full) | normalized growth | 1 |
| CC(C)(C)NCC(O)c1cc(O)cc(O)c1 (stereo not given) | normalized growth | 0.984 |

====

# Experiment Notes: chemical genetic growth profiling, strain panel (AID 1159580);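 further: tested at 20 µM; growth read once vehicle control cultures reached saturation at 30 °C; 1 = growth at the plate median or of vehicle wells; lower values mean less growth of the strain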
# Conditions: S. cerevisiae deletion strains, growth OD, locus YBR231C, strain swc5, active compounds read low
In all, about 5,500 compounds went through this assay and about 2,000 (36%) were called active. Not shown: some 18% with an inconclusive outcome. The list shows a part of the results.
Measured normalized growth accompanies every entry in the list below.
Value Type: normalized growth

| Compound | Value Type | Observed Result |
| --- | --- | --- |
| Cc1ccccc1OCC(O)CO (stereo unspecified) | normalized growth | 0.98 (inactive) |
| CCCCCc1c2c(cc(O)c1C(=O)O)OC(=O)c1c(cc(OC)cc1C(=O)CCCC)O2 | normalized growth | 0.988 (inactive) |
| CCOCN(C(=O)CCl)c1c(C)cccc1CC | normalized growth | 0.989 (inactive) |
| COC1=CC(=O)C(C(=O)c2ccccc2)=CC1=O | normalized growth | 0.972 (inactive) |
| C=C[C@H]1CN2CC[C@H]1C[C@@H]2[C@@H](OC(=O)OCC)c1ccnc2ccc(OC)cc12 | normalized growth | 1 (inactive) |
| CC/C(=C(/CC)c1ccc(O)cc1)c1ccc(O)cc1 | normalized growth | 1.03 (inactive) |

====

# Experiment Notes: chemical genetic growth profiling, strain panel (AID 1159580);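 further: tested at 20 µM; growth read once vehicle control cultures reached saturation at 30 °C; 1 = growth at the plate median or of vehicle wells; lower values mean less growth of the strain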
# Conditions: S. cerevisiae deletion strains, growth OD, locus YDR162C, strain NBP2, active compounds read low
Out of some 5,500 compounds screened, about 2,000 (36%) were called active. Not shown: some 18% with an inconclusive outcome. The list shows a part of the results.
Value Type: normalized growth

| Molecule | Value Type | Observed Result |
| --- | --- | --- |
| CC1CC[C@@]2(OC1)O[C@H]1CC3C4CC[C@@H]5C[C@@H](O)CC[C@]5(C)C4CC[C@]3(C)[C@H]1[C@@H]2C (stereo partly drawn) | normalized growth | 1.04 |
| COC(=O)C1OC(=O)C2OC23C1(C)CCC1C2(C)C(OC(C)=O)CC(OC(C)=O)C(C)(C)C2CC(=O)C13C (stereo not drawn) | normalized growth | 1.01 |
| COc1cc(OC)c2c(=O)c(OC)c(-c3ccc(OC)c(OC)c3)oc2c1 | normalized growth | 0.98 |
| C[C@@H]1CC[C@@]2(OC1)OC1CC3C4CC=C5C[C@@H](O)CC[C@]5(C)C4CC[C@]3(C)C1[C@@H]2C (stereo partly drawn) | normalized growth | 1.01 |
| CNC(C)C(O)c1ccccc1 (stereo not drawn) | normalized growth | 1 |
| CC(CC(O)C1OC1(C)C)[C@@H]1CCC2(C)C3=CCC4C(C)(C)C(=O)CCC4(C)C3CC[C@@]12C (stereo partly drawn) | normalized growth | 1.04 |
| Cc1cc(OC(=O)c2c(C)cc(O)cc2O)cc(O)c1C(=O)O | normalized growth | 1.01 |
| CC1CCC2(OC1)OC1CC3C4CC[C@H]5C[C@@H](O)CC[C@]5(C)C4CC(=O)[C@]3(C)C1C2C (stereo partly drawn) | normalized growth | 1.01 |
| O=C1C=C2C(=CCOC2O)O1 (stereo not drawn) | normalized growth | 0.258 |
| CCC/C=C1\OC(=O)C2=C1CCC=C2 | normalized growth | 0.993 |
| NC(N)=NC(=O)c1nc(Cl)c(N2CCCCCC2)nc1N | normalized growth | 1.03 |
| CCCCCCC(C)OC(=O)COc1ccc(Cl)cc1Cl (stereo not drawn) | normalized growth | 0.939 |
| CC1CC[C@]2(NC1)O[C@H]1CC3C4CC[C@H]5C[C@@H](O)CC[C@]5(C)C4CC[C@]3(C)[C@H]1[C@@H]2C (stereo partly drawn) | normalized growth | 0.0587 |
| CCCCCCCCCCCC1=C(O)C(=O)C=C(O)C1=O | normalized growth | 0.338 |
| O=C(Cc1cccs1)NC1C(=O)N2C(C(=O)[O-])=C(C[n+]3ccccc3)CSC12 (stereo not drawn) | normalized growth | 1.01 |
| CCC(=O)c1c(O)cc(O)cc1O | normalized growth | 1 |
| COc1cc(O)c2c(=O)c(O)c(-c3ccc(O)c(O)c3)oc2c1 | normalized growth | 0.948 |
| CCc1cc(C(N)=S)ccn1 | normalized growth | 1 |

====

# Experiment Notes: chemical genetic growth profiling, strain panel (AID 1159580);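 further: tested at 20 µM; growth read once vehicle control cultures reached saturation at 30 °C; 1 = growth at the plate median or of vehicle wells; lower values mean less growth of the strain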
# Conditions: S. cerevisiae deletion strains, growth OD, locus YDR363W, strain ESC2, active compounds read low
In all, about 5,500 compounds went through this assay and about 2,000 (36%) were called active. Roughly 18% stayed inconclusive and do not appear here. The list shows a part of the results.

| Molecule | normalized growth |
| --- | --- |
| N#C/C(=C\c1ccc(O)c(O)c1)C(=O)NCCc1ccccc1 | 1 |
| O=c1c(O)c(-c2ccc(O)c(O)c2)oc2cc(O)cc(O)c12 | 1.01 |
| CC1(C)CCC(NC(=O)[C@@H](N)CCC(=O)O)CC1 | 1.02 |
| CCCC(C)(COC(N)=O)COC(=O)NC(C)C (stereo not given) | 0.976 |
| N#CC(C#N)=C(N)/C(C#N)=C/c1ccc(O)cc1 | 0.999 |
| NC(=O)OCC(COC(N)=O)c1ccccc1 | 1 |
| O=c1c(O)c(-c2ccc(O)cc2O)oc2cc(O)cc(O)c12 | 0.995 |
| CCN(c1nc(N)c(C(=O)N=C(N)N)nc1Cl)C(C)C | 0.989 |
| N#CC(C#N)=Cc1cc(O)c(O)c(O)c1 | 1 |
| NC(=S)NCCCC(N)C(=O)O (stereo not given) | 1.02 |
| C[C@]12CC[C@@H]3c4ccc(O)cc4CC[C@H]3[C@@H]1CC[C@@H]2O | 1.01 |
| COc1cc2c(cc1OC)[C@@H](c1ccccc1)CN(C)CC2 | 1.01 |
| COc1cc(OC)c(/C=C2/C(=O)Nc3ccccc32)c(OC)c1 | 0.984 |
| N#C/C(=C\c1ccc(O)c(O)c1)C(=O)c1ccc(O)c(O)c1 | 0.994 |
| N#C/C(=C\c1ccc(O)c(O)c1)C(=O)NCCCc1ccccc1 | 1.01 |
| N#CC(C#N)=Cc1ccc(O)c(O)c1 | 1.02 |
| COc1cc(=O)n(C)c2c(OCC(O)C(C)(C)O)cccc12 (stereo not given) | 1.01 |
| Cc1ccc(S(=O)(=O)N[C@@H](Cc2ccccc2)C(=O)CCl)cc1 | 1 |
| Cc1cc(C)c(/C=C2\C(=O)Nc3ccccc32)[nH]1 | 0.987 |
| O=C(O)Cc1cnc[nH]1 | 1.02 |
